Hello, the source for this data is patent US20230074436A1, in case you need it.

biological target: human alpha-synuclein monomer (human, UniProt P37840 1-140); assay: SPR (Biacore 8K), IgG captured on anti-human Fc, aSyn monomer injected;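 further: aSyn injected as a dilution series, signal corrected against a reference cell holding an irrelevant IgG, Kd from one-to-one Langmuir kinetic fitting of kon and koff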
Recorded measurements of Kd, one per entry

{"BINDER": "HC2_L3_7 (antibody, V domains shown) VH: EVQLVESGGGLVQPGGSLRLSCAASGFTFSNAAMYWVRQAPGKGLELVSRIRTKPNNYATYHADSVKGRFTISRDNSKNTLYLQMNSLRAEDTAVYYCTADMATGDYWGQGTLVTVSS VL: DIQMTQSPSSLSASVGDRVTITCKASQNINKNLDWYQQKPGKAPKPLIYSTNNLQTGVPSRFSGSGSGTDFTLTISSLQPEDFATYYCYQYKNGWTFGQGTKVEIK", "QUANTITY UNIT": "nM", "Kd": 4.59}
{"BINDER": "H3_5_LC2 (antibody, V domains shown) VH: EVQLVESGGGLVQPGGSLRLSCAASGFTFSNAAMYWVRQAPGKGLELVSRIRTKPNNYATYHADSVKGRFTISRDNSKNTLYLQMNSLRAEDTAVYYCTADFARGDYWGQGTLVTVSS VL: DIQMTQSPSSLSASVGDRVTITCKASQNINKNLDWYQQKPGKAPKPLIYSTNNLQTGVPSRFSGSGSGTDFTLTISSLQPEDFATYYCYQYKSAWTFGQGTKVEIK", "QUANTITY UNIT": "nM", "Kd": 3.84}
